TEST_DETAILS: recombinant UMI read abundance after kanamycin selection (control-corrected) (log10(CPM+1)); higher = more efficient recombination; extreme values may be limits of the assay; sequences stand for … in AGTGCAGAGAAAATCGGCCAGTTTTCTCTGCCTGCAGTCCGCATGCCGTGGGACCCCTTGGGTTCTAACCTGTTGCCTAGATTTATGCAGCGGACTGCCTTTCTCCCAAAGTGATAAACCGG…AGGTTGGTTTCACT; site = the 11-nt donor;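 also: IS621 bridge recombinase in Escherichia coli cells against a fixed T5 target plasmid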
# key: entry, value: recombinant UMI read abundance (log10)

# INPUT_SEQUENCE, recombinant UMI read abundance (log10)
records = [
    ("TACTTGACATGGACCGGTTTTCCCGGTAATCCGTATTTGCA (site TACTTGACTCG)", 0.0381),
    ("TGGCCGGCATGGACCGGTTTTCCCGGTAATCCGTATTTGGA (site TGGCCGGCTGC)", 0),
    ("ACCTGGACATGGACCGGTTTTCCCGGTAATCCGTATTTGTG (site ACCTGGACTCA)", 0.502),
    ("CCGTTATCATGGACCGGTTTTCCCGGTAATCCGTATTTGTG (site CCGTTACCTCA)", 0.00831),
    ("AGGACTTCATGGACCGGTTTTCCCGGTAATCCGTATTTGAC (site AGGACTTCTGT)", 2.76),
    ("CACTCTTCATGGACCGGTTTTCCCGGTAATCCGTATTTGTT (site CACTCTTCTAA)", 1.58),
    ("TATGCTGCATGGACCGGTTTTCCCGGTAATCCGTATTTGGA (site TATGCTGCTTC)", 0.0199),
    ("CTGGAAACATGGACCGGTTTTCCCGGTAATCCGTATTTGCA (site CTGAAAACTTG)", 0.744),
    ("ATTGAGACATGGACCGGTTTTCCCGGTAATCCGTATTTGGA (site ATTGAGACTGC)", 0.645),
    ("ATGTAAGCATGGACCGGTTTTCCCGGTAATCCGTATTTGGC (site ATGTAAGCTGC)", 3.24),
    ("GCGAAGCCATGGACCGGTTTTCCCGGTAATCCGTATTTGGG (site GCCAAGCCTCC)", 0),
    ("ACTCAAGCATGGACCGGTTTTCCCGGTAATCCGTATTTGTT (site ACTCAAGCTAA)", 1.72),
    ("GCTTGCCCATGGACCGGTTTTCCCGGTAATCCGTATTTGAG (site GCTTGCCCTTT)", 0.107),
    ("GTGGAGGCATGGACCGGTTTTCCCGGTAATCCGTATTTGCG (site GTGGAGGCTCT)", 0.716),
    ("CCGTATACATGGACCGGTTTTCCCGGTAATCCGTATTTGCT (site CCGTATACTAG)", 1.24),
]

* * *

TEST_DETAILS: recombinant UMI read abundance after kanamycin selection (control-corrected) (log10(CPM+1)); higher = more efficient recombination; extreme values may be limits of the assay; sequences stand for … in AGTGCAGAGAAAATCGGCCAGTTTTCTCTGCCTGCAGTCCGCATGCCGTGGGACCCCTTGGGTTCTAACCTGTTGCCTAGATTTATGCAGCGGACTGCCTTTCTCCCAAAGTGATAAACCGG…AGGTTGGTTTCACT; site = the 11-nt donor
Grouping by measured recombinant UMI read abundance (log10) is done with the following cut points: low = under 0.003, intermediate = from 0.003 up to 0.4, high = 0.4 and over

# INPUT_SEQUENCE, CLASSIFICATION
measured = [
    ("CGGCGCCCATGGACCGGTTTTCCCGGTAATCCGTATTTGAG (site CGGCGCCCTCT)", "intermediate"),
    ("TCGAAAACATGGACCGGTTTTCCCGGTAATCCGTATTTGCT (site CCGAAAACTAG)", "high"),
    ("CAAGCAGCATGGACCGGTTTTCCCGGTAATCCGTATTTGCT (site TAAGCAGCTAG)", "intermediate"),
    ("AGGAAGGCATGGACCGGTTTTCCCGGTAATCCGTATTTGCT (site AGCAAGGCTAG)", "intermediate"),
    ("TCAGTGACATGGACCGGTTTTCCCGGTAATCCGTATTTGCG (site TCAGCGACTCG)", "intermediate"),
    ("TACTTGGCATGGACCGGTTTTCCCGGTAATCCGTATTTGTG (site TATTTGGCTCA)", "intermediate"),
    ("CTGTAGGCATGGACCGGTTTTCCCGGTAATCCGTATTTGGC (site GTGTAGGCTGC)", "low"),
    ("CGGTGGCCATGGACCGGTTTTCCCGGTAATCCGTATTTGGG (site CGGTGGCCTCC)", "intermediate"),
    ("CATCGGGCATGGACCGGTTTTCCCGGTAATCCGTATTTGCC (site CATCGGGCTGG)", "high"),
    ("CGGAACCCATGGACCGGTTTTCCCGGTAATCCGTATTTGGT (site CGGAATCCTAA)", "low"),
]
